Settings: in n-propanol, 303.15 K
observable: solubility (mole fraction)
Lab note: write the figure by itself, no unit.

The recorded solubility (mole fraction) for entry "Cn1c(=O)cc(N2CCC[C@@H](N)C2)n(Cc2ccccc2C#N)c1=O.O=C(O)c1ccccc1" equals 0.000278

====

Conditions: in isopropanol, 298.15 K
observable: solubility (mole fraction)
Lab note: write the figure by itself, no unit.

The recorded solubility (mole fraction) for entry "Cn1c(=O)cc(N2CCC[C@@H](N)C2)n(Cc2ccccc2C#N)c1=O.O=C(O)c1ccccc1" equals 8.8e-05

====

Details: in acetone, 313.15 K
observable: solubility (mole fraction)
Lab note: write the figure by itself, no unit.

The recorded solubility (mole fraction) for entry "Cn1c(=O)cc(N2CCC[C@@H](N)C2)n(Cc2ccccc2C#N)c1=O.O=C(O)c1ccccc1" equals 0.00587
